FYI, the data here is from the supplement of paper PMC10567573.

assay: protein stability index of a GFP-peptide fusion (GPS, HEK-293T) (PSI 1-6); higher = more stable; details: treatment: DMSO; c terminus: a fixed tail appended;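 note: 24-mer peptide tiles fused after GFP, lentivirally expressed, FACS-sorted into six equal bins by GFP/DsRed ratio, decoded by Illumina sequencing, PSI is the read-weighted mean bin number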
Answer not fulfilled if protein stability index is under 3, and fulfilled if it is 3 or more.

{"BIOPOLYMER_SEQUENCE": "MMRTQCLLGLRTFVAFAAKLWSFF [CTDNEP1]", "CLASS_ASSIGNMENT": "fulfilled"}
{"BIOPOLYMER_SEQUENCE": "RAVLKYLYTGELDENERDLMHIAH [RHOBTB2]", "CLASS_ASSIGNMENT": "not fulfilled"}

Ask: Check if protein stability index >= 3 (inclusive). Item: SLVHMDIKPSNIFISRTSIPNAAS [WEE1]
Result: not fulfilled

Ask: Quick check: does VSVNLEAFSQAISAIQALRSSVSR [MED27] have protein stability index greater than or equal to 3?
Result: fulfilled

Ask: Can KAQLPRRESERRNHSLARHADILA [FBXO28] be said to have protein stability index at or above 3?
Result: fulfilled

Ask: I'd appreciate it if you could say whether KMELGIDLLAYGAKAELPKYKSFN [MYOZ1] has protein stability index at least equal to 3.
Result: not fulfilled

Ask: Please tell me: is the sequence TEYQKQLLAAQVQLQCSPAELQAE [FBF1] at or over 3 in terms of protein stability index?
Result: fulfilled

---

assay: protein stability index of a GFP-peptide fusion (GPS, HEK-293T) (PSI 1-6); higher = more stable; details: treatment: DMSO; c terminus: a fixed tail appended
So basically: protein stability index at 4 or higher? That is Satisfied. Lower than 4? That is Not satisfied.

{"BIOPOLYMER_SEQUENCE": "SDCEEEEEEEEEEGSGHSTGEDSA [WEE1]", "CLASS_ASSIGNMENT": "Satisfied"}
{"BIOPOLYMER_SEQUENCE": "KKFLTLGSKFRYSGRTQAQTRRAS [EPB41L3]", "CLASS_ASSIGNMENT": "Not satisfied"}
{"BIOPOLYMER_SEQUENCE": "NVHTGEFRNCGACVTLMQGHEGSV [WDR88]", "CLASS_ASSIGNMENT": "Not satisfied"}

Ask: Hi team, for DNEYAYLKAIIFFDPDAKGLSDPG [HNF4A] , is the recorded protein stability index at or above 4?
Result: Not satisfied

Ask: Check this sequence for protein stability index at or above 4: LYPSLNVTSFDSVVPEKLDDLVPK [ALG2]
Result: Satisfied

---

assay: protein stability index of a GFP-peptide fusion (GPS, HEK-293T) (PSI 1-6); higher = more stable; settings: treatment: MLN4924 1 uM, 8 h; c terminus: a fixed tail appended
PARAMETER_MEASURED: protein stability index
Enter the number alone.

{"BIOPOLYMER_SEQUENCE": "AYVSPEILNTTGTYSGKAADVWSL [TRIB1]", "protein stability index": 2.37}

Ask: Any idea what protein stability index was measured for YGLPIMVTLMVAKWTGDFFNKGIY [CLCN6] ?
Result: 3.4

Ask: Value lookup for protein stability index; key = DDATLSRLELERKIESLMDEIEFL [PRPH]
Result: 3.88

Ask: I'd like to know its protein stability index. The sequence in question is AEGTTGLAPAGQTSEESRPRLSQL [TNXB]
Result: 5.36

Ask: Record request: protein stability index value, item TYEPFCKVPVITSSKEEQKLIATS [KCTD10]
Result: 4.16

Ask: Consider the sequence CCIVTSTYGWTANMERIMKAQALR [HSP90AB1] and give its measured protein stability index.
Result: 2.42

Ask: Give its protein stability index value. Item: LPGWEDIESKIPLNMEEPPVEEPE [SLC19A2]
Result: 5.24
